# system.tested: 3-hydroxy-3-methylglutaryl-coenzyme A reductase (Rattus norvegicus) (UniProt P51639)
# protocol.text: Relative potency to inhibit solubilized, partially purified rat liver HMG-CoA reductase compared with that of compactin.
property.measured: Relative potency
Note: the reply should be a number with no unit written.

Note Relative potency for the compound shown: O=C1C[C@H](O)CC(CCc2c(Cl)cc(Cl)cc2OCc2cccc(F)c2)O1 (some centres undefined)
8

Note Relative potency for the compound shown: CC(CCOc1cc(Cl)cc(Cl)c1/C=C/[C@@H]1C[C@@H](O)CC(=O)O1)CC(C)(C)C (some centres undefined)
0.09

Note Relative potency for the compound shown: O=C1C[C@H](O)C[C@@H](/C=C/c2c(Cl)cc(Cl)cc2OCCC23CC4CC(CC(C4)C2)C3)O1
0.7

Note Relative potency for the compound shown: O=C1C[C@H](O)CC(CCc2c(Cl)cc(Cl)cc2OCC2CCCCC2)O1 (some centres undefined)
4.4

Note Relative potency for the compound shown: CCCCCOc1cc(Cl)cc(Cl)c1/C=C/[C@@H]1C[C@@H](O)CC(=O)O1
2.4

Note Relative potency for the compound shown: O=C1C[C@H](O)C[C@@H](/C=C/c2c(Cl)cccc2Cl)O1
0.14

Note Relative potency for the compound shown: C=CCOc1cc(Cl)cc(Cl)c1/C=C/[C@@H]1C[C@@H](O)CC(=O)O1
3.2

Note Relative potency for the compound shown: O=C1C[C@H](O)C[C@@H](CCc2c(Cl)cc(Cl)cc2OCc2ccc(F)cc2)O1 (stereo in doubt; 66)
38

Note Relative potency for the compound shown: O=C1C[C@H](O)C[C@@H](/C=C/c2c(Cl)cc(Cl)cc2OCc2ccco2)O1
3

Note Relative potency for the compound shown: O=C1C[C@H](O)C[C@@H](CCc2c(Cl)cc(Cl)cc2OCc2ccc(F)cc2)O1 (stereo in doubt; 66(+))
58

Note Relative potency for the compound shown: CSCOc1cc(Cl)cc(Cl)c1/C=C/[C@@H]1C[C@@H](O)CC(=O)O1
2.1

Note Relative potency for the compound shown: O=C1C[C@H](O)C[C@@H](/C=C/c2c(Cl)cc(Cl)cc2OCc2ccncc2)O1
0.6

Note Relative potency for the compound shown: O=C1C[C@H](O)C[C@@H](CCc2c(Cl)cc(Cl)cc2OCc2ccccc2)O1 (racemic)
12

Note Relative potency for the compound shown: O=C1C[C@H](O)C[C@@H](/C=C/c2c(Cl)cc(OCc3ccc(F)cc3)cc2Cl)O1
2.7

Note Relative potency for the compound shown: O=C1C[C@H](O)C[C@@H](/C=C/c2c(Cl)cc(Cl)cc2OCc2cccc3ccccc23)O1
0.4

Note Relative potency for the compound shown: O=C1C[C@H](O)C[C@@H](/C=C/c2c(Cl)cc(Cl)cc2OCc2ccc(F)cc2F)O1
7.5

Note Relative potency for the compound shown: O=C1C[C@H](O)C[C@@H](/C=C/c2cccc(Cl)c2Cl)O1
0.017

Note Relative potency for the compound shown: O=C1C[C@H](O)C[C@@H](/C=C/c2ccc(Cl)cc2Cl)O1
0.08

Note Relative potency for the compound shown: N#Cc1ccc(COc2cc(Cl)cc(Cl)c2/C=C/[C@@H]2C[C@@H](O)CC(=O)O2)cc1
1.25

====

# system.tested: UniProt:P51639
# protocol.text: Relative potency to inhibit solubilized, partially purified rat liver HMG-CoA reductase compared with that of compactin.
hey, just use yes if measured Relative potency is less than 4, otherwise no

I wonder whether COCCOCOc1cc(Cl)cc(Cl)c1/C=C/[C@@H]1C[C@@H](O)CC(=O)O1 has Relative potency below 4. Can you tell?
yes

I wonder whether O=C1C[C@H](O)C[C@@H](/C=C/c2c(Cl)cc(Cl)cc2OCc2cccc(F)c2)O1 has Relative potency below 4. Can you tell?
yes

I wonder whether O=C1C[C@H](O)C[C@@H](/C=C/c2ccccc2)O1 has Relative potency below 4. Can you tell?
yes

I wonder whether O=C1C[C@H](O)C[C@@H](/C=C/c2c(Cl)cc(Cl)cc2OCCOc2ccc(Cl)cc2)O1 has Relative potency below 4. Can you tell?
yes

I wonder whether O=C1C[C@H](O)C[C@@H](/C=C/c2c(Cl)cc(Cl)cc2OCCc2ccccc2)O1 has Relative potency below 4. Can you tell?
no

I wonder whether O=C1C[C@H](O)C[C@@H](/C=C/c2c(Cl)cc(Cl)cc2OCc2ccccc2)O1 (racemic) has Relative potency below 4. Can you tell?
yes

I wonder whether O=C1C[C@H](O)CC(CCc2c(Cl)cc(Cl)cc2OCc2ccc(C(F)(F)F)cc2)O1 (some centres undefined) has Relative potency below 4. Can you tell?
yes

I wonder whether O=C1C[C@H](O)C[C@@H](/C=C/c2c(Cl)cc(Cl)cc2OCc2ccccc2F)O1 has Relative potency below 4. Can you tell?
no

I wonder whether O=C1C[C@H](O)C[C@@H](CCc2c(Cl)cc(Cl)cc2OCc2ccccc2)O1 (stereo in doubt; 8a(+)) has Relative potency below 4. Can you tell?
no

I wonder whether O=C1C[C@H](O)CC(CCc2c(O)cc(Cl)cc2Cl)O1 (some centres undefined) has Relative potency below 4. Can you tell?
yes

I wonder whether O=C1C[C@H](O)C[C@@H](/C=C/c2c(Cl)cc(Cl)cc2OCc2cccs2)O1 has Relative potency below 4. Can you tell?
yes

I wonder whether O=C1C[C@H](O)C[C@@H](/C=C/c2c(Cl)cc(Cl)cc2OCc2cccnc2)O1 has Relative potency below 4. Can you tell?
yes

I wonder whether O=C1C[C@H](O)C[C@@H](CCc2c(Cl)cc(Cl)cc2COc2ccccc2)O1 has Relative potency below 4. Can you tell?
no

I wonder whether O=C1C[C@H](O)C[C@@H](/C=C/c2ccc(OCc3ccc(F)cc3)c(Cl)c2Cl)O1 has Relative potency below 4. Can you tell?
yes

I wonder whether O=C1C[C@H](O)C[C@@H](/C=C/c2c(Cl)cc(Cl)cc2OCc2c(F)c(F)c(F)c(F)c2F)O1 has Relative potency below 4. Can you tell?
yes

I wonder whether O=C1C[C@H](O)CC(CCc2c(Cl)cc(Cl)cc2OCc2ccccc2F)O1 (some centres undefined) has Relative potency below 4. Can you tell?
no

I wonder whether O=C1C[C@H](O)C[C@@H](/C=C/c2c(Cl)cc(Cl)cc2OCc2ccc(F)cc2)O1 has Relative potency below 4. Can you tell?
no

I wonder whether Cc1cc(OCc2ccccc2)cc(C)c1/C=C/[C@@H]1C[C@@H](O)CC(=O)O1 has Relative potency below 4. Can you tell?
yes

====

Provide the recorded Relative potency for the entries that follow.
# system.tested: UniProt P51639
# protocol.text: Relative potency to inhibit solubilized, partially purified rat liver HMG-CoA reductase compared with that of compactin.
Note: the reply should be a number with no unit written.

Note Relative potency for the compound shown: O=C1C[C@H](O)C[C@@H](/C=C/c2ccccc2Cl)O1
0.15

Note Relative potency for the compound shown: O=C1C[C@H](O)C[C@@H](/C=C/c2c(Cl)cc(Cl)cc2OCCCc2ccccc2)O1
1.6

Note Relative potency for the compound shown: O=C1C[C@H](O)C[C@@H](/C=C/c2c(Cl)cc(Cl)cc2OCc2cc[n+]([O-])cc2)O1
0.016

Note Relative potency for the compound shown: O=C1C[C@H](O)C[C@@H](/C=C/c2ccccc2-c2ccccc2)O1
0.63

Note Relative potency for the compound shown: O=C1C[C@H](O)C[C@@H](/C=C/c2c(Cl)cc(Cl)cc2OCc2ccc(Cl)cc2)O1
1.7

Note Relative potency for the compound shown: O=C1C[C@H](O)C[C@@H](/C=C/c2c(Cl)cc(Cl)cc2OCc2ccccn2)O1
1.8

Note Relative potency for the compound shown: O=C1C[C@H](O)C[C@@H](/C=C/c2c(Cl)cc(Cl)cc2Oc2ccccc2)O1
1.4

Note Relative potency for the compound shown: Cc1ccc(COc2cc(Cl)cc(Cl)c2/C=C/[C@@H]2C[C@@H](O)CC(=O)O2)cc1
0.3

Note Relative potency for the compound shown: O=C1C[C@H](O)C[C@@H](/C=C/c2c(Cl)cc(Cl)cc2OCc2ccc[n+]([O-])c2)O1
0.016

====

# system.tested: 3-hydroxy-3-methylglutaryl-coenzyme A reductase (Rattus norvegicus, UniProt P51639)
# Sequence (P51639 whole entry): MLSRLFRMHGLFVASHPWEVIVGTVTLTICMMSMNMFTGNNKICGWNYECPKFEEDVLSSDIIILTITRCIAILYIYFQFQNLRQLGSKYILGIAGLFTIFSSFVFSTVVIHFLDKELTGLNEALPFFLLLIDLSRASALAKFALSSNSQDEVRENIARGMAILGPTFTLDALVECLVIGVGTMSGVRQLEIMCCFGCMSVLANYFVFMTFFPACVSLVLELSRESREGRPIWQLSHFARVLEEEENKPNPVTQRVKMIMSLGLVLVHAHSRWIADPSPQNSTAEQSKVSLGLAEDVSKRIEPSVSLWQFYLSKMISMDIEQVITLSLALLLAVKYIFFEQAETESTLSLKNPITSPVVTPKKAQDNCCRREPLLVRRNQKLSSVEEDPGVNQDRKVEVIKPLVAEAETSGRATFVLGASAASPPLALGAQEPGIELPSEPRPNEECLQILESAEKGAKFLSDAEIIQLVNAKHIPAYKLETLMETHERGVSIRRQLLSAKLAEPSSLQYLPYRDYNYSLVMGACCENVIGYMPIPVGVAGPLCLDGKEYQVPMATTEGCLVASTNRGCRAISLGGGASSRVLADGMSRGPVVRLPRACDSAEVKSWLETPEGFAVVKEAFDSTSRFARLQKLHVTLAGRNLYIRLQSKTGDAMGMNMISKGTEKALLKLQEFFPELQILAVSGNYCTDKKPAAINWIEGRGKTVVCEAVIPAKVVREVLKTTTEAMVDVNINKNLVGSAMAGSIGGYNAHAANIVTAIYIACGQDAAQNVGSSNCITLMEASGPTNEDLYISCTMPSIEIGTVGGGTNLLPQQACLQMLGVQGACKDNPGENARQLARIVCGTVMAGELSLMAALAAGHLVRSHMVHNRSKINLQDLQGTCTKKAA
Categories are defined by ranges of IC50, namely low (below 0.5 µM), middle (0.5 µM to below 6 µM), high (6 µM or more)

For this compound, which bin applies? O=C1C[C@H](O)C[C@@H](/C=C/c2c(Cl)cc(Cl)cc2OCc2cccc3ccccc23)O1
middle

For this compound, which bin applies? O=C1C[C@H](O)C[C@@H](CCc2c(Cl)cc(Cl)cc2COc2ccccc2)O1
low

For this compound, which bin applies? O=C1C[C@H](O)C[C@@H](/C=C/c2c(Cl)cc(Cl)cc2OC(c2ccccc2)c2ccccc2)O1
high

For this compound, which bin applies? O=C1C[C@H](O)C[C@@H](/C=C/c2c(Cl)cc(Cl)cc2OCc2ccc(F)cc2F)O1
low

For this compound, which bin applies? O=C1C[C@H](O)C[C@@H](/C=C/c2c(Cl)cc(Cl)cc2OCCc2ccccc2)O1
low

For this compound, which bin applies? O=C1C[C@H](O)C[C@@H](/C=C/c2c(Cl)cc(Cl)cc2OCc2cccnc2)O1
middle

For this compound, which bin applies? O=C1C[C@H](O)C[C@@H](/C=C/c2ccc(Cl)c(Cl)c2)O1
high

For this compound, which bin applies? CCCCCOc1c(Cl)cc(Cl)cc1/C=C/[C@@H]1C[C@@H](O)CC(=O)O1
high
